inhibition at 1 µM values by entry
system: JAK1/3 signaling to STAT6 in Ramos B cells; experiment: IL4 stimulation of JAK1/3 signaling to STAT6 in Ramos B cells (pSTAT6 Y641, FACS); type: cell-based; conditions: Homo sapiens, 1.0 uM compound, read-out: IL-4/STAT6 in Ramos Percent Inhibition at 1.0 uM
Provide only the numeric value, understood in %.

INSERT INTO results (compound, target_entity, property_name, endpoint_value) VALUES
  ('NC(=O)c1cnc(Nc2cccc(OCCN3CCOCC3)c2)cc1NC(CO)c1ccccc1 (centres unmarked)', 'JAK1/3 signaling to STAT6 in Ramos B cells', 'inhibition at 1 µM', 36),
  ('NC(=O)c1cnc(Nc2cccc(N3CCOCC3)c2)cc1NCc1cccc(F)c1', 'JAK1/3 signaling to STAT6 in Ramos B cells', 'inhibition at 1 µM', 49),
  ('CS(=O)(=O)N1CCC(c2ccc(Nc3cc(NCc4ccccc4F)c(C(N)=O)cn3)cc2)CC1', 'JAK1/3 signaling to STAT6 in Ramos B cells', 'inhibition at 1 µM', 46),
  ('CCC(=O)N1CCC(c2ccc(Nc3cc(NCc4ccccc4F)c(C(N)=O)cn3)cc2)CC1', 'JAK1/3 signaling to STAT6 in Ramos B cells', 'inhibition at 1 µM', 43),
  ('COCC(=O)N1CCC(c2ccc(Nc3cc(NCc4ccccc4F)c(C(N)=O)cn3)cc2)CC1', 'JAK1/3 signaling to STAT6 in Ramos B cells', 'inhibition at 1 µM', 43);

Quick one: inhibition at 1 µM of "CN(C)C(=O)c1cccc(Nc2cc(NCc3ccccc3)c(C(N)=O)cn2)c1" ? 24

Now the same for "CC(=O)N1CCN(c2ccc(Nc3cc(NCc4cccs4)c(C(N)=O)cn3)cc2)CC1" 57

Thanks! And "CC(C)N1CCC(c2ccc(Nc3cc(NCc4ccccc4F)c(C(N)=O)cn3)cc2)CC1" ? 37
